- System: virus strain F (R13025)
- TEST NAME: microbe, parasite or virus in culture
- Type: cell-based, HIV
- APPLIED CONDITIONS: Human immunodeficiency virus 1, MT4, read-out: HIV-AVE-MT4-MTT-R13025-2-002 pEC50, virus strain F (R13025), MT4 cells, MTT (converted)
Give measured EC50 for each item. Keep answers brief.
Numbers only, in nM.

Below, each entry is followed by its recorded EC50 result.
# MOLECULE, EC50 (nM)
rows = [
    ("Cc1cccc(C)c1OCC(=O)N[C@@H](Cc1ccccc1)[C@H](O)CN(CC(C)C)S(=O)(=O)c1ccc2nc(NC(=O)c3cccc(O)c3C)sc2c1", 35.5),
    ("Cc1cccc(C)c1OCC(=O)N[C@@H](Cc1ccccc1)[C@H](O)CN(CC(C)C)S(=O)(=O)c1ccc2nc(NC(=O)C3CC(=O)N(Cc4ccco4)C3)sc2c1 (stereo partly drawn)", 33.9),
]

Provide each entry's EC50 from the list below.
1. Cc1cccc(C)c1OCC(=O)N[C@@H](Cc1ccccc1)[C@H](O)CN(CC(C)C)S(=O)(=O)c1ccc2nc(NC(=O)C3CCN(C)CC3)sc2c1
2. CNCCNc1nc2ccc(S(=O)(=O)N(CC(C)C)C[C@@H](O)[C@H](Cc3ccccc3)NC(=O)OCc3cncs3)cc2s1
3. CC(C)CN(C[C@@H](C)[C@H](Cc1ccccc1)NC(=O)OCc1cncs1)S(=O)(=O)c1ccc2nc(N(C)C(=O)c3ccncc3)sc2c1
4. CC(=O)NCCNc1nc2ccc(S(=O)(=O)N(CC(C)C)C[C@@H](O)[C@H](Cc3ccccc3)NC(=O)COc3c(C)cccc3C)cc2s1

Solution:
31.6
162
36.3
33.9

Provide each entry's EC50 from the list below.
1. CC(C)CN(C[C@@H](O)[C@H](Cc1ccccc1)NC(=O)OCc1cncs1)S(=O)(=O)c1ccc2nc(NC(=O)c3cc(ON)cc(ON)c3)sc2c1
2. Cc1cccc(C)c1OCC(=O)N[C@@H](Cc1ccccc1)[C@H](O)CN(CC(C)C)S(=O)(=O)c1ccc2nc(N(C)CCCN(C)C)sc2c1

Solution:
[46.8, 4170]
